Cited source for all entries: patent US6017962A

System: U-138
PROTOCOL: Cytotoxicity of BCNU
Type: cell-based
TEST_PARAMETERS: Homo sapiens, MET^+ HCY^- culture, 1 h BCNU, 4 days, read-out: IC50 (MET)
ASSAY_METRIC: IC50 (µM)
Please state the figure in µM; there is no need to write the unit.

Given item O=NN(CCCl)C(=O)NCCCl , the value recorded as its IC50 is 50

* * *

System: D-341
PROTOCOL: Cytotoxicity of BCNU
Format: cell-based
TEST_PARAMETERS: Homo sapiens, D341, MET^- HCY^+ culture, 1 h BCNU, 4 days, read-out: IC50 (HCY)
ASSAY_METRIC: pIC50
Here pIC50 is given on a logarithmic scale as minus log10 of the concentration in mol/L.

Tested on D-341, the item O=NN(CCCl)C(=O)NCCCl [BCNU, 1,3-bis (2-chloroethyl)-1-nitrosourea] showed pIC50 equal to 5.00
